Each recorded value in this set is attributed to ChEMBL document CHEMBL1667745.

Tested on: Streptococcus pneumoniae
Assay: Antimicrobial activity against erythromycin-susceptible Streptococcus pneumoniae ATCC 49619 by broth microdilution method
Type: functional
Provide the recorded MIC for the entries that follow.
Reply numerically in µg/mL, unit not repeated.

Identify the measured MIC of CC[C@H]1OC(=O)[C@H](C)[C@@H](O[C@H]2C[C@@](C)(OC)[C@@H](OC(=O)NCCCC(=O)NCc3ccc(F)cc3)[C@H](C)O2)[C@H](C)[C@@H](O[C@@H]2O[C@H](C)C[C@H](N(C)C)[C@H]2O)[C@](C)(OC)C[C@@H](C)C(=O)[C@H](C)[C@@H](O)[C@]1(C)O for Streptococcus pneumoniae.
0.03

Next up: CCCCNC(=O)CCCNC(=O)O[C@H]1[C@H](C)O[C@@H](O[C@H]2[C@H](C)[C@@H](O[C@@H]3O[C@H](C)C[C@H](N(C)C)[C@H]3O)[C@](C)(OC)C[C@@H](C)C(=O)[C@H](C)[C@@H](O)[C@](C)(O)[C@@H](CC)OC(=O)[C@@H]2C)C[C@@]1(C)OC
0.03

Next up: CC[C@H]1OC(=O)[C@H](C)[C@@H](O[C@H]2C[C@@](C)(OC)[C@@H](OC(=O)NCCCC(=O)NC3CCCCC3)[C@H](C)O2)[C@H](C)[C@@H](O[C@@H]2O[C@H](C)C[C@H](N(C)C)[C@H]2O)[C@](C)(OC)C[C@@H](C)C(=O)[C@H](C)[C@@H](O)[C@]1(C)O
0.03

Next up: CC[C@H]1OC(=O)[C@H](C)[C@@H](O[C@H]2C[C@@](C)(OC)[C@@H](OC(=O)NCCCC(=O)NCCc3ccc(O)cc3)[C@H](C)O2)[C@H](C)[C@@H](O[C@@H]2O[C@H](C)C[C@H](N(C)C)[C@H]2O)[C@](C)(OC)C[C@@H](C)C(=O)[C@H](C)[C@@H](O)[C@]1(C)O
0.03

Next up: CC[C@H]1OC(=O)[C@H](C)[C@@H](O[C@H]2C[C@@](C)(OC)[C@@H](OC(=O)NCCc3ccc(O)cc3)[C@H](C)O2)[C@H](C)[C@@H](O[C@@H]2O[C@H](C)C[C@H](N(C)C)[C@H]2O)[C@](C)(OC)C[C@@H](C)C(=O)[C@H](C)[C@@H](O)[C@]1(C)O
0.12

Next up: CC[C@H]1OC(=O)[C@H](C)[C@@H](O[C@H]2C[C@@](C)(OC)[C@@H](OC(=O)NCCCCCC(=O)NCc3ccc(F)cc3)[C@H](C)O2)[C@H](C)[C@@H](O[C@@H]2O[C@H](C)C[C@H](N(C)C)[C@H]2O)[C@](C)(OC)C[C@@H](C)C(=O)[C@H](C)[C@@H](O)[C@]1(C)O
0.03

Next up: CC[C@H]1OC(=O)[C@H](C)[C@@H](O[C@H]2C[C@@](C)(OC)[C@@H](OC(=O)NCc3ccccc3)[C@H](C)O2)[C@H](C)[C@@H](O[C@@H]2O[C@H](C)C[C@H](N(C)C)[C@H]2O)[C@](C)(OC)C[C@@H](C)C(=O)[C@H](C)[C@@H](O)[C@]1(C)O
0.25

Next up: CC[C@H]1OC(=O)[C@H](C)[C@@H](O[C@H]2C[C@@](C)(OC)[C@@H](OC(=O)NCCCCCC(=O)NCc3ccccc3)[C@H](C)O2)[C@H](C)[C@@H](O[C@@H]2O[C@H](C)C[C@H](N(C)C)[C@H]2O)[C@](C)(OC)C[C@@H](C)C(=O)[C@H](C)[C@@H](O)[C@]1(C)O
0.03

Next up: C=CCNC(=O)CCCCCNC(=O)O[C@H]1[C@H](C)O[C@@H](O[C@H]2[C@H](C)[C@@H](O[C@@H]3O[C@H](C)C[C@H](N(C)C)[C@H]3O)[C@](C)(OC)C[C@@H](C)C(=O)[C@H](C)[C@@H](O)[C@](C)(O)[C@@H](CC)OC(=O)[C@@H]2C)C[C@@]1(C)OC
0.03

Next up: CCCCCNC(=O)CCCCCNC(=O)O[C@H]1[C@H](C)O[C@@H](O[C@H]2[C@H](C)[C@@H](O[C@@H]3O[C@H](C)C[C@H](N(C)C)[C@H]3O)[C@](C)(OC)C[C@@H](C)C(=O)[C@H](C)[C@@H](O)[C@](C)(O)[C@@H](CC)OC(=O)[C@@H]2C)C[C@@]1(C)OC
0.03

Next up: CCCCNC(=O)CCCCCNC(=O)O[C@H]1[C@H](C)O[C@@H](O[C@H]2[C@H](C)[C@@H](O[C@@H]3O[C@H](C)C[C@H](N(C)C)[C@H]3O)[C@](C)(OC)C[C@@H](C)C(=O)[C@H](C)[C@@H](O)[C@](C)(O)[C@@H](CC)OC(=O)[C@@H]2C)C[C@@]1(C)OC
0.06
